# Assay Target: GRK2 (Homo sapiens)
# Sequence (P25098 1-689): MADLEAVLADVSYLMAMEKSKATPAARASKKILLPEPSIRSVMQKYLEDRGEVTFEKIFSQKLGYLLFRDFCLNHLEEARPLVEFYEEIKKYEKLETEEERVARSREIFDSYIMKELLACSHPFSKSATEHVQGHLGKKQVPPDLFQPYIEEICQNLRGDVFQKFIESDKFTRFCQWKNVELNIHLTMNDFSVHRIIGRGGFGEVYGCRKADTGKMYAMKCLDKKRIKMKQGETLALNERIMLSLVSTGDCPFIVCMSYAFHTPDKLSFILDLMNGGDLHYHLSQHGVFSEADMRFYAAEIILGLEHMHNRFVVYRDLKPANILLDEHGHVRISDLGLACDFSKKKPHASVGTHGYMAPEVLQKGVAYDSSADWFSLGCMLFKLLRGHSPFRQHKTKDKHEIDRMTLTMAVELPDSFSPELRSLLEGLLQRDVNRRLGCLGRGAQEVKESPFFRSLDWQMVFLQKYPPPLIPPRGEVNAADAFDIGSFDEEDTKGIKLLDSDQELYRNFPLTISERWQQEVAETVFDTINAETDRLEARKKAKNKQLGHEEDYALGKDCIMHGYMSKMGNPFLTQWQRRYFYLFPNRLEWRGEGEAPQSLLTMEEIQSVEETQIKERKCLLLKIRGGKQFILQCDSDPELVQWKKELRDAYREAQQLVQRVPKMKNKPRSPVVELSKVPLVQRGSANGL
# Method: GRK2 Degradation Assay and Western Blot in PAXF1657 cells
# Format: cell-based
# Set-up: endogenous in cells; host or cells: PAXF1657
# Recorded Conditions: Conc 1 uM; read-out: Degradation Assay - 3 point: Degradation (%)
Structures can show the parent of a compound that is named as a salt.
Classification field: fulfilled = inhibition at 1 µM at or over 60%; not fulfilled = inhibition at 1 µM under 60%.

Please review the entries below; each comes with its answer.
# Molecule, Assay Target, Assigned Category
rows = [
    ("C[C@@H](NC(=O)c1cccc(NCc2nnc(-c3ccncn3)n2C)c1)c1cccc(C(=O)N2CC(CN3CCN(c4ccc5c(c4)CN(C4CCC(=O)NC4=O)C5=O)CC3)C2)c1 (some centres unmarked) [Compound D121, hydrochloride]", "GRK2 (Homo sapiens)", "not fulfilled"),
    ("C[C@@H](NC(=O)c1cccc(NCc2nnc(-c3ccncn3)n2C)c1)c1cccc(OCCCCCCOCCOCCN2CCN(c3cc4c(cc3F)C(=O)N(C3CCC(=O)NC3=O)C4=O)CC2)c1 (some centres unmarked)", "GRK2 (Homo sapiens)", "fulfilled"),
    ("C[C@@H](NC(=O)c1cccc(NCc2nnc(-c3ccncn3)n2C)c1)c1cccc(OCCCCCOCCCOCC(=O)N2CCN(c3cc4c(cc3F)C(=O)N(C3CCC(=O)NC3=O)C4=O)CC2)c1 (some centres unmarked)", "GRK2 (Homo sapiens)", "fulfilled"),
]

# check: inhibition at 1 µM of Cn1c(CNc2cccc(C(=O)NCc3ccc(OCCCCCOCCCOCC(=O)Nc4cccc5c4CN(C4CCC(=O)NC4=O)C5=O)cc3)c2)nnc1-c1ccncn1 (centres unmarked) is greater than or equal to 60%
not fulfilled

Repeat with `Cc1ncsc1-c1ccc(CNC(=O)[C@@H]2C[C@@H](O)CN2C(=O)[C@@H](NC(=O)COCCCOCCCCCOc2cccc([C@@H](C)NC(=O)c3cccc(NCc4nnc(-c5ccncn5)n4C)c3)c2)C(C)(C)C)cc1`
not fulfilled

These entries and their values trace back to patent US20240174637A1.
